Value source: paper PMC7289862

target_under_test: T1, Swi5-Sfr1 complex (UniProt Q9UUB7 1-85; Q9USV1 1-299)
T1 construct: Swi5, subunit of the Swi5-Sfr1 complex; Sfr1, subunit of the Swi5-Sfr1 complex; Over-expressed and purified as a preformed complex; detected in the co-IP by blots for Sfr1 and Swi5; No tag is mentioned; also called Swi5-Sfr1 auxiliary factor; source: E. coli BL21-Codonplus(DE3) RIPL, purified as a complex (ammonium sulfate, Q Sepharose, HiTrap Heparin, Superdex 200)
T1 sequence (looked up) 1: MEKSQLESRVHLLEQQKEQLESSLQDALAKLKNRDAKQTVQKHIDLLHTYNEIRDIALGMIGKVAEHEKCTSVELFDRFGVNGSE
T1 sequence (looked up) 2: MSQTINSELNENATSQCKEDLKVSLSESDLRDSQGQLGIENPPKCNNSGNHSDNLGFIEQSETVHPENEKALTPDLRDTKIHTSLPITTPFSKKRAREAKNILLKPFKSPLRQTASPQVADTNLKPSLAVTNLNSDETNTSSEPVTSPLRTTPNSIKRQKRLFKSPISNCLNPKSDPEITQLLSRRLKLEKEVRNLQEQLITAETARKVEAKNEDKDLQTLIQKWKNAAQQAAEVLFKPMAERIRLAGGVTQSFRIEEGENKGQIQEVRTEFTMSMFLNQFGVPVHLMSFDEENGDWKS
experimental_protocol: co-IP; purified Rad51 (2.5 uM) and Swi5-Sfr1 (2.5 uM) mixed in 30 mM Tris-HCl pH 7.5, 20 mM KCl, 3 mM MgCl2, 1 mM DTT, 5% glycerol, 0.05% NP-40, 30 min at 4 °C; precipitated with rabbit anti-Rad51 antibody and protein G magnetic beads; western blots for Rad51, Sfr1 and Swi5
condition: both partners purified
readout_label: binding result

binder: wild-type Rad51 from the fission yeast Schizosaccharomyces pombe (natural protein, UniProt P36601 1-365, looked up, Rad51 recombinase, Schizosaccharomyces pombe; No tag is mentioned; purification is by conventional chromatography; also called SpRad51; WT) MADTEVEMQVSAADTNNNENGQAQSNYEYDVNVQDEEDEAAAGPMPLQMLEGNGITASDIKKIHEAGYYTVESIAYTPKRQLLLIKGISEAKADKLLGEASKLVPMGFTTATEYHIRRSELITITTGSKQLDTLLQGGVETGSITELFGEFRTGKSQICHTLAVTCQLPIDMGGGEGKCLYIDTEGTFRPVRLLAVADRYGLNGEEVLDNVAYARAYNADHQLELLQQAANMMSESRFSLLVVDSCTALYRTDFSGRGELSARQMHLARFMRTLQRLADEFGIAVVITNQVVAQVDGISFNPDPKKPIGGNILAHSSTTRLSLRKGRGEQRICKIYDSPCLPESEAIFAINSDGVGDPKEIIAPV
readout_label: binding result
result: binds

binder: Rad51-L2 mutant (V295A in loop 2) (natural protein, Schizosaccharomyces pombe, UniProt P36601 1-365, looked up, Rad51 recombinase, Schizosaccharomyces pombe, with V295A in L2; source: E. coli BL21-Codonplus(DE3) RIPL, purified (same procedure as wild-type Rad51)) MADTEVEMQVSAADTNNNENGQAQSNYEYDVNVQDEEDEAAAGPMPLQMLEGNGITASDIKKIHEAGYYTVESIAYTPKRQLLLIKGISEAKADKLLGEASKLVPMGFTTATEYHIRRSELITITTGSKQLDTLLQGGVETGSITELFGEFRTGKSQICHTLAVTCQLPIDMGGGEGKCLYIDTEGTFRPVRLLAVADRYGLNGEEVLDNVAYARAYNADHQLELLQQAANMMSESRFSLLVVDSCTALYRTDFSGRGELSARQMHLARFMRTLQRLADEFGIAVVITNQVVAQADGISFNPDPKKPIGGNILAHSSTTRLSLRKGRGEQRICKIYDSPCLPESEAIFAINSDGVGDPKEIIAPV
readout_label: binding result
result: binds

binder: Rad51-L1 mutant (R257A in loop 1) (natural protein, Schizosaccharomyces pombe, UniProt P36601 1-365, looked up, Rad51 recombinase, Schizosaccharomyces pombe, with R257A in L1; source: E. coli BL21-Codonplus(DE3) RIPL, purified (as wild-type Rad51, with a HiTrap Blue column instead of HiTrap Heparin)) MADTEVEMQVSAADTNNNENGQAQSNYEYDVNVQDEEDEAAAGPMPLQMLEGNGITASDIKKIHEAGYYTVESIAYTPKRQLLLIKGISEAKADKLLGEASKLVPMGFTTATEYHIRRSELITITTGSKQLDTLLQGGVETGSITELFGEFRTGKSQICHTLAVTCQLPIDMGGGEGKCLYIDTEGTFRPVRLLAVADRYGLNGEEVLDNVAYARAYNADHQLELLQQAANMMSESRFSLLVVDSCTALYRTDFSGAGELSARQMHLARFMRTLQRLADEFGIAVVITNQVVAQVDGISFNPDPKKPIGGNILAHSSTTRLSLRKGRGEQRICKIYDSPCLPESEAIFAINSDGVGDPKEIIAPV
readout_label: binding result
result: binds
